src = paper PMC8453481

Molecular target: PC5/6 (Homo sapiens, UniProt Q92824)
Construct: PC5/6 (Arg33-Gly634, UNP[41] Q92824)
Sequence (Q92824 33-634): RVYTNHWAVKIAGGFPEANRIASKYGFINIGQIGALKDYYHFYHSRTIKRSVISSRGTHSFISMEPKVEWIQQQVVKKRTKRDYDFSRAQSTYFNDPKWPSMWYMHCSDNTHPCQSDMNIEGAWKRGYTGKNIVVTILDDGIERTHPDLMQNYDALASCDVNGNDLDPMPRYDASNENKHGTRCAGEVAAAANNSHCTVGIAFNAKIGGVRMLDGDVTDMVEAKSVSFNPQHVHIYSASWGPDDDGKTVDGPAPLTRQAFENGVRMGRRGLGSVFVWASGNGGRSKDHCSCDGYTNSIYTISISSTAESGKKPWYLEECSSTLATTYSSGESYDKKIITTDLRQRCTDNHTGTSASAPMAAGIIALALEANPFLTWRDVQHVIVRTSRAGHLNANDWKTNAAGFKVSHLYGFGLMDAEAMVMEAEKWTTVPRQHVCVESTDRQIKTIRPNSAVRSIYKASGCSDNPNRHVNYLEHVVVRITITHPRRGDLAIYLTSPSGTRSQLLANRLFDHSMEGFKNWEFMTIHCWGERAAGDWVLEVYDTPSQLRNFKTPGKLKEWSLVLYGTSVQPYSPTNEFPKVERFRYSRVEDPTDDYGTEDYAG
Assay: Enzyme kinetics with fluorogenic substrate pyr-ERTKR-AMC, PC5/6
Conditions: pH 7.0, 37 °C, competitive inhibition model, constant inhibitor concentration, substrate dilution series, triplicate
value type: Ki (nM)

> print(dat)
                                   molecule  value.reported
1  N=C(N)N/N=C/c1ccc(/C=N/NC(=N)N)cc1 [inhibitor 2]            1700
2  C/C(=N\NC(=N)N)c1cc(N)cc(/C(C)=N/NC(=N)N)c1 [inhibitor 1]            3600
